# Test system: PC-3 cells
# testDescription: MTT cell proliferation assay, PC-3
# Assay type: cell-based, human
# conditions: 48 h treatment in FBS-free medium, read-out: IC50 Value (Mean ± SD mM) PC-3
valueKind: IC50 (mM)
// note: answer is a bare numeric in mM

NCCc1ccccc1 [β-phenylethylamine, reference compound] ... 0.44

With those in mind, consider the next molecule.
I have this molecule here, Nc1c(O)cccc1C(=O)CC(N)C(=O)O (centres unmarked) [3-HK, 3-hydroxykynurenine] , and I need its recorded IC50. 0.55

###

# System: PC-3 and LNCaP cells
# testDescription: MTT cell proliferation assay, PCa cell lines
# Format: cell-based
# conditions: Homo sapiens; PC-3 and LNCaP; read-out: IC50 values on PCa cell lines
pIC50: −log10 of the molar value.
valueKind: pIC50

O=C(O)c1cc(=O)c2ccccc2[nH]1 [KYNA, kynurenic acid] ... < 2.30

With those in mind, consider the next compound.
I have this compound here, O=C(O)c1cccnc1C(=O)O [QA, quinolinic acid] , and I need its recorded pIC50. < 2.30

###

Entries and their measured IC50 follow.
# System: RWPE-1 cells
# testDescription: MTT cell proliferation assay, RWPE-1
# Assay type: cell-based
# conditions: Homo sapiens, RWPE-1; MTT, 48 h treatment in FBS-free medium; read-out: IC50 Value (Mean ± SD mM) RWPE-1
# Protocol: PC-3, LNCaP, RWPE-1, HepG2, A549, and PANC-1 cells were purchased from the National Collection of Authenticated Cell Cultures (Shanghai, China). […] All the above cell cultures were supplied with 10% fetal bovine serum and 1% penicillin-streptomycin. […] Cells were seeded in 100 μL complete medium in a 96-well plate, at a density of 10,000 cells/well for LNCaP and 5000 cells/well for other cells. […] Absorbance was measured using a microplate reader at 492 nm for the MTT assay (performed in triplicates). […]
Express your answer as a number followed by its unit.

NCCc1c[nH]c2ccc(O)cc12 [5-HT, 5-hydroxytryptamine] ... 1.66 mM

I have this compound here, "O=C(O)c1cc(=O)c2ccccc2[nH]1" , and I need its recorded IC50. 4.39 mM

I have this compound here, N[C@@H](Cc1c[nH]c2ccc(O)cc12)C(=O)O [5-HTP, 5-hydroxytryptophan] , and I need its recorded IC50. 0.85 mM

I have this compound here, Nc1ccccc1C(=O)CC(N)C(=O)O (stereo not shown) , and I need its recorded IC50. 2.79 mM
